Assay: yeast display, Sf9 membrane polyspecificity reagent, FACS + sequencing; frameworks hold sequencing errors
measured.attribute: polyreactivity (PSR sort gate)

Known polyreactivity (PSR sort gate) results, listed for orientation:
input: Complete the entry with polyreactivity (PSR sort gate) for QVQLVESGGGLVQAGGSLRLSCAASGNTIIRYAIAWYRQAPGKERELVAAISYSGGRTYYADSVKGRFTISRDNANNTVYLQMNSLKPEDTAVYYCNAASRYGGDYWGQGTQVTVSS
output: high polyreactivity

input: Complete the entry with polyreactivity (PSR sort gate) for QVQLVESGGGLVQAGGSLRLSCAASGFIFWQYTMGWYRQAPGKERELVAAITWRGTRTYADSVKGRFTISRDNAKNTVYLQMNSLKPEDTAVYYCAAREYYHGPDGGYYGYDYWGQGTQVTVSS
output: high polyreactivity

input: Complete the entry with polyreactivity (PSR sort gate) for QVQLVESGGGLVQAGGSLRLSCAASGITFRYYAMGWYRQAPGKERELVAVISTSGGSTYYADSVKGRFTISRDNAKNTVYLQMNSLKPEDTAVYYCAARYTYWGLLRYDYWGQGTQVTVSS
output: high polyreactivity

input: Complete the entry with polyreactivity (PSR sort gate) for QVQLVESGGGLVQAGGSLRLSCAASGSTISFYAMGWYRQAPGKERELVAAISRSGGSTFYADSVKGRFTISRDNAKNTVYLQMNSLKPEDTAVYYCAAYGGMQSRYYYWGQGTQVTVSS
output: high polyreactivity

***
input: Complete the entry with polyreactivity (PSR sort gate) for QVQLVESGGGLVQAGGSLRLRCAASGRIFTYYAMGWYRPAPGKERELVAAISWSGGSTYYADSVKGRFTISRDNAKNTVYLQMNSLKPEDTAVYYCNAVYPSVYPVSTRYYWGQGTQVTVSS
output: high polyreactivity

input: Complete the entry with polyreactivity (PSR sort gate) for QVHLVESGGGLVQAGGSLRLSCAASGSTFYRYAMGWYSQAPGKERELVAAISKRGGSTYYADSVKGRFTISRDNAKNTVYLQMNSLKPEDTAGQYCAADPFDYGGGDDYWGQGTQVTVSS
output: high polyreactivity

input: Complete the entry with polyreactivity (PSR sort gate) for QVQLVESGGGLVQAGGSLRLSCAASGRIFKLYAMGWYRQAPGKERELVAAISTSAGSTNYADSVKGRFTISRDNEKNTVYLQMNSLKPEDTAVYYCAVAGVSTYYTYYYWGQGTQVTVSS
output: low polyreactivity

input: Complete the entry with polyreactivity (PSR sort gate) for QVQLVESGGGLVQARGSLRLSCAASGAIFVVYTMGWYRQAPGKERELVAAITQNGGSSTYYADSVKGSFTISRDNAKNTFYLQMNSLKPDDTAVYYCNVDSFTTTFDYWGQGTQVTVSS
output: low polyreactivity

input: Complete the entry with polyreactivity (PSR sort gate) for QVQLVESGGGLVQAGGSLRLSCAASGRTFDGNTMGWYRQAPGKERELVAAITKRGGSTYYADSVKGRFTISRDNAKNTVYLQMNSLKPEDTAVYYCNAVWRNWYARVDEYDYWGQGTQVTVSS
output: high polyreactivity

input: Complete the entry with polyreactivity (PSR sort gate) for QVQLQERGGALVQAGGSLRLICAATGNITVTGFMGWYRQSPGKERELVASIAIGGTTYYADSVKGRFSISRDNAKNTVYLQRNSLKQEDTAVSYGAARYLYYAYSYWGQGTQVTVSS
output: low polyreactivity

input: Complete the entry with polyreactivity (PSR sort gate) for QVQRVESGGGLVQAGGSLRLSCAASRITFTVNAMGWYRQAPGKERELVAAISWSGGSTYYADSVKGRFTISRDIAKNTVYLQMNSLKPEDTAVYYCNAVLYRFAYNYWGQGTQVTVSS
output: low polyreactivity

src = the nanobody polyreactivity screen of Harvey et al. (2022)
